- Test system: SK-MEL-2 melanoma
- TEST_METHOD_NOTES: NCI tumour cell line growth inhibition, 48 h
QUANTITY_KIND: TGI

Please supply TGI for each of the following items, keeping them in order.
1. CCCC(=O)Nc1cc(/C=C/C(=O)N2CC(CCl)c3c2cc([N+](=O)[O-])c2ccccc32)n(C)c1 (stereo not given)
2. COc1cc(C=O)c(-c2cc3c(cc2C2(C)OCCS2)OCO3)c(OC)c1OC (stereo not given)
3. S=c1nc2sc3c(c2c(Nc2ccc(Br)cc2)[nH]1)CCN(N1CCc2c(sc4nc(=S)[nH]c(Nc5ccc(Br)cc5)c24)C1)C3
4. C[n+]1c2ccccc2c(Nc2ccc(NS(=O)(=O)CCCCN=C(N)N)cc2)c2ccc(N)cc21
5. Cc1ccc(C(=O)/C(=C\c2ccc([N+](=O)[O-])cc2)S(=O)Cc2ccc(F)cc2)cc1 (stereo not given)
6. COc1cc(C2c3cc4c(cc3OC3(OC)COC(=O)C23)OCO4)cc(OC)c1OC (stereo not given)

> 100 µM
47.7 µM
> 50 µM
50.6 µM
5.2 µM
> 40.9 µM

Please supply TGI for each of the following items, keeping them in order.
1. C[C@H](N)C(=O)N[C@@H]1[C@H]2C(=C(O)C[C@@H](O)[C@@H]2O)C(=O)O[C@@H]1C
2. COc1ccc2nc3cc([N+](=O)[O-])ccc3c(NCCCN(CCO)CCO)c2c1

1. > 100 µM
2. 3.2 µM

Please supply TGI for each of the following items, keeping them in order.
1. Cc1ccc(C(=O)N2CCN(C(=O)c3ccc(C)cc3)c3ccccc32)cc1
2. Cc1ccc(S(=O)(=O)C2c3nc4ccccc4cc3-c3nc4ccccc4nc32)cc1 (stereo not given)
3. O=C(O)CN(CC(=O)O)Cc1ccn(-c2cccc(-n3ccc(CN(CC(=O)O)CC(=O)O)n3)n2)n1
4. CCCOC(=O)N[C@H]1CCc2cc(OC)c(OC)c(OC)c2-c2ccc(SC)c(=O)cc21
5. Cc1nc2c(Cl)cc(Cl)cc2c(Cl)c1CCCl
6. Fc1cccc(CSc2ncnc3c2ncn3C2CCCS2)c1 (stereo not given)
7. O=C1[C@H]2ON(c3ccccc3)C(c3ccccc3F)[C@H]2C(=O)N1c1ccc(Cc2ccc(N3C(=O)[C@@H]4ON(c5ccccc5)C(c5ccccc5F)[C@@H]4C3=O)cc2)cc1 (stereo not given in full)

1: > 39.6 µM; 2: > 100 µM; 3: > 100 µM; 4: 90.1 µM; 5: > 100 µM; 6: 40.3 µM; 7: > 100 µM
